B1: PTPN9 (parent)
chain: ILFSLPPALDWDSVHVPGPHAMTI

- Variants of: B1
- TEST DESCRIPTION: protein stability index of a GFP-peptide fusion (GPS, HEK-293T) (PSI 1-6); higher = more stable;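 note: lentivirally expressed fusions sorted by FACS into six bins by GFP to DsRed ratio, PSI derived from sequencing read proportions per bin multiplied by bin number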
- PROTOCOL CONDITIONS: c terminus: a fixed tail appended
MEASURED PARAMETER: protein stability index
The answer should be written as a number, with no unit following it.

IN: Query (variant): ILFSLPPALDHDSVHVPGPHAMTI [W11H] ; field requested: protein stability index
OUT: 2

IN: Query (variant): ILFSLPPNLDWDSVHVPGPHAMTI [A8N] ; field requested: protein stability index
OUT: 2.04

IN: Query (variant): ILFSLPPALDWDSVHVPGPHAQTI [M22Q] ; field requested: protein stability index
OUT: 2.04
